# run.description: Plasma PK, Part A single oral doses in healthy participants
# Assay type: in vivo, human
# condition.details: human, plasma, oral, 200 mg, single dose 200 mg (4 × 50 mg), fasted; read-out: Vz/F, geometric mean (CV%)
quantity: Vd/F (L)

# compound.structure, observed
records = [
    ("OC[C@H]1O[C@H](Sc2cncc(Br)c2)[C@H](O)[C@@H](n2cc(-c3cc(F)c(F)c(F)c3)nn2)[C@H]1O", 344),
]

###

# run.description: Plasma PK, Part A single oral doses in healthy participants
# Assay type: in vivo, human
# condition.details: human, plasma, oral, 50 mg, single dose 50 mg (1 × 50 mg), fasted; read-out: Vz/F, geometric mean (CV%)

# compound.structure, Vd/F, L
measured = [
    ("OC[C@H]1O[C@H](Sc2cncc(Br)c2)[C@H](O)[C@@H](n2cc(-c3cc(F)c(F)c(F)c3)nn2)[C@H]1O", 200),
]

###

# run.description: Plasma PK, Part B multiple oral BID doses in healthy participants
# Type: in vivo, human
# condition.details: human, plasma, oral, 50 mg, 50 mg BID, fasted, Day 10; read-out: Cmax, geometric mean (CV%)
quantity: Cmax (ng/mL)

# compound.structure, observed
records = [
    ("OC[C@H]1O[C@H](Sc2cncc(Br)c2)[C@H](O)[C@@H](n2cc(-c3cc(F)c(F)c(F)c3)nn2)[C@H]1O", 658),
]

###

# run.description: Plasma PK, Part A single oral doses in healthy participants
# Type: in vivo, human
# condition.details: human, plasma, oral, 400 mg, single dose 400 mg (8 × 50 mg), fasted; read-out: Cmax, geometric mean (CV%)
quantity: Cmax (ng/mL)

# compound.structure, observed
rows = [
    ("OC[C@H]1O[C@H](Sc2cncc(Br)c2)[C@H](O)[C@@H](n2cc(-c3cc(F)c(F)c(F)c3)nn2)[C@H]1O", 1550),
]

###

# run.description: Plasma PK, Part A single oral doses in healthy participants
# Assay type: in vivo, human
# condition.details: human, plasma, oral, 50 mg, Fed; read-out: Cmax, geometric LS means

# compound.structure, Cmax [ng/mL]
measured = [
    ("OC[C@H]1O[C@H](Sc2cncc(Br)c2)[C@H](O)[C@@H](n2cc(-c3cc(F)c(F)c(F)c3)nn2)[C@H]1O", 389),
]

###

# run.description: Plasma PK, Part A single oral doses in healthy participants
# Assay type: in vivo, human
# condition.details: human, plasma, oral, 5 mg, single dose 5 mg (1 × 5 mg), fasted; read-out: Vz/F, geometric mean (CV%)
quantity: Vd/F (L)

# compound.structure, observed
measured = [
    ("OC[C@H]1O[C@H](Sc2cncc(Br)c2)[C@H](O)[C@@H](n2cc(-c3cc(F)c(F)c(F)c3)nn2)[C@H]1O", 114),
]

###

# run.description: Urine PK, Part A single oral doses in healthy participants
# Format: in vivo, human
# condition.details: human, urine, oral, 200 mg, single dose 200 mg (4 × 50 mg), fasted; read-out: CLR, geometric mean (CV%) (converted)

# compound.structure, unit.abbreviation, CL renal
rows = [
    ("OC[C@H]1O[C@H](Sc2cncc(Br)c2)[C@H](O)[C@@H](n2cc(-c3cc(F)c(F)c(F)c3)nn2)[C@H]1O", "mL/min", 30.5),
]

###

# run.description: Plasma PK, Part A single oral doses in healthy participants
# Format: in vivo, human
# condition.details: human, plasma, oral, 20 mg, single dose 20 mg (4 × 5 mg), fasted; read-out: Cmax, geometric mean (CV%)

# compound.structure, Cmax / ng/mL
data = [
    ("OC[C@H]1O[C@H](Sc2cncc(Br)c2)[C@H](O)[C@@H](n2cc(-c3cc(F)c(F)c(F)c3)nn2)[C@H]1O", 365),
]

###

# run.description: Urine PK, Part A single oral doses in healthy participants
# Format: in vivo, human
# condition.details: human, urine, oral, 100 mg, single dose 100 mg (2 × 50 mg), fasted; read-out: CLR, geometric mean (CV%) (converted)

# compound.structure, CL renal / mL/min
measured = [
    ("OC[C@H]1O[C@H](Sc2cncc(Br)c2)[C@H](O)[C@@H](n2cc(-c3cc(F)c(F)c(F)c3)nn2)[C@H]1O", 43.2),
]

###

# run.description: Plasma PK, Part A single oral doses in healthy participants
# Type: in vivo, human
# condition.details: human, plasma, oral, 50 mg, single dose 50 mg (1 × 50 mg), fasted; read-out: AUC0–tlast, geometric mean (CV%)

# compound.structure, unit.abbreviation, AUC(0-t)
rows = [
    ("OC[C@H]1O[C@H](Sc2cncc(Br)c2)[C@H](O)[C@@H](n2cc(-c3cc(F)c(F)c(F)c3)nn2)[C@H]1O", "ng·h/mL", 4180),
]

###

# run.description: Plasma PK, Part A single oral doses in healthy participants
# Assay type: in vivo, human
# condition.details: human, plasma, oral, 400 mg, single dose 400 mg (8 × 50 mg), fasted; read-out: AUC0–tlast, geometric mean (CV%)
quantity: AUC(0-t)

# compound, observed
measured = [
    ("OC[C@H]1O[C@H](Sc2cncc(Br)c2)[C@H](O)[C@@H](n2cc(-c3cc(F)c(F)c(F)c3)nn2)[C@H]1O [GB1211]", "19000 ng·h/mL"),
]

###

# run.description: Plasma PK, Part B multiple oral BID doses in healthy participants
# Assay type: in vivo, human
# condition.details: human, plasma, oral, 50 mg, 50 mg BID, fasted, Day 1; read-out: Tmax, median (min–max)
quantity: Tmax (h)

# molecule, observed
measured = [
    ("OC[C@H]1O[C@H](Sc2cncc(Br)c2)[C@H](O)[C@@H](n2cc(-c3cc(F)c(F)c(F)c3)nn2)[C@H]1O [GB1211]", 4),
]

###

# run.description: Plasma PK, Part A single oral doses in healthy participants
# Format: in vivo, human
# condition.details: human, plasma, oral, 50 mg, single dose 50 mg (1 × 50 mg), fasted; read-out: Tmax, median (min–max)

# compound.structure, Tmax
records = [
    ("OC[C@H]1O[C@H](Sc2cncc(Br)c2)[C@H](O)[C@@H](n2cc(-c3cc(F)c(F)c(F)c3)nn2)[C@H]1O", "3.04 h"),
]

###

# run.description: Plasma PK, Part A single oral doses in healthy participants
# Format: in vivo, human
# condition.details: human, plasma, oral, 5 mg, single dose 5 mg (1 × 5 mg), fasted; read-out: t½, arithmetic mean (SD) (converted)

# compound.structure, unit.abbreviation, half-life
rows = [
    ("OC[C@H]1O[C@H](Sc2cncc(Br)c2)[C@H](O)[C@@H](n2cc(-c3cc(F)c(F)c(F)c3)nn2)[C@H]1O", "h", 11.3),
]

###

# run.description: Plasma PK, Part A single oral doses in healthy participants
# Assay type: in vivo, human
# condition.details: human, plasma, oral, 200 mg, single dose 200 mg (4 × 50 mg), fasted; read-out: Cmax, geometric mean (CV%)

# compound.structure, Cmax [ng/mL]
data = [
    ("OC[C@H]1O[C@H](Sc2cncc(Br)c2)[C@H](O)[C@@H](n2cc(-c3cc(F)c(F)c(F)c3)nn2)[C@H]1O", 1010),
]

###

# run.description: Plasma PK, Part A single oral doses in healthy participants
# Type: in vivo, human
# condition.details: human, plasma, oral, 50 mg, single dose 50 mg (10 × 5 mg), fasted; read-out: AUC0–∞, geometric mean (CV%)
quantity: AUC(0-inf) (ng·h/mL)

# compound, observed
measured = [
    ("OC[C@H]1O[C@H](Sc2cncc(Br)c2)[C@H](O)[C@@H](n2cc(-c3cc(F)c(F)c(F)c3)nn2)[C@H]1O [GB1211]", 7480),
]

###

# run.description: Plasma PK, Part A single oral doses in healthy participants
# Format: in vivo, human
# condition.details: human, plasma, oral, 50–400 mg (50 mg capsule), single dose, fasted; read-out: Median Tmax, range across doses

# compound, Tmax
data = [
    ("OC[C@H]1O[C@H](Sc2cncc(Br)c2)[C@H](O)[C@@H](n2cc(-c3cc(F)c(F)c(F)c3)nn2)[C@H]1O [GB1211]", "3.04 to 4 h"),
]

###

# run.description: Plasma PK, Part A single oral doses in healthy participants
# Assay type: in vivo, human
# condition.details: human, plasma, oral, 200 mg, single dose 200 mg (4 × 50 mg), fasted; read-out: AUC0–tlast, geometric mean (CV%)
quantity: AUC(0-t)

# compound.structure, quantity, observed
data = [
    ("OC[C@H]1O[C@H](Sc2cncc(Br)c2)[C@H](O)[C@@H](n2cc(-c3cc(F)c(F)c(F)c3)nn2)[C@H]1O", "AUC(0-t)", "11500 ng·h/mL"),
]
